Recorded EC50 for the following binders
tested on: human cancer-specific MUC1 peptide (PTL 1) (human)
experiment notes: ELISA on immobilised human cancer-specific MUC1 peptide, 4-parameter fit, duplicate (Example 6-2)
parameter: EC50 (nM)

{"binder": "[Gd/DOTA-NH-CH2-(1,4-Ph)-NH-C(═O)-Met-Ile-NH-(CH2)2-Z1(#N)]p-Fab^5 (Fab, V domains shown, labeling may sit on this chain; sites not stated; labeling portion (MW 1074) on amino groups of the Fab, sites and chain not stated; 1-2 per Fab by MS; Gln 1 pyroglutamic acid as Fab^5 is defined in paragraph 370) VH: QVQLVQSGAEVKKPGASVKVSCKASGYTFTNYGLSWVRQAPGQGLEWMGENHPGSGIIYHNEKFRGRVTLTADRSTSTAYMELSSLRSEDTAVYYCARSSGTRGFDYWGQGTLVTVSS VL: DVVMTQTPLSLSVTPGQPASISCRSSQSIVHSNGNTYLEWYLQKPGQSPQLLIYRVSNRFSGVPDRFSGSGSGTDFTLKISRVEAEDVGVYYCFQGSHGPWTFGQGTKLEIKR", "unit label": "nM", "quantitative readout": 0.08}
{"binder": "Ex-No 106, conjugate of Fab^5 (structure given only as drawing CHEM-US-00164) (Fab, V domains shown, labeling may sit on this chain; sites not stated; low molecular weight molecule (MW 1380) bound to the Fab, sites and chain not stated; 1-3 per Fab by MS; Gln 1 pyroglutamic acid as Fab^5 is defined in paragraph 370) VH: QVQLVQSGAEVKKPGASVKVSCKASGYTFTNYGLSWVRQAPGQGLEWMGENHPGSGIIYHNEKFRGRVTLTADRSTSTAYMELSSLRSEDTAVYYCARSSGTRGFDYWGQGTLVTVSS VL: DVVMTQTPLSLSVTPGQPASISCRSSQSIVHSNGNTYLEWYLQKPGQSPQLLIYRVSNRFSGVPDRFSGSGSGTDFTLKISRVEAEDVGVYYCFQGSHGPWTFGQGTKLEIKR", "unit label": "nM", "quantitative readout": 0.1}
{"binder": "Ex-No 102, conjugate of Fab^5 (structure given only as drawing CHEM-US-00161) (Fab, V domains shown, labeling may sit on this chain; sites not stated; low molecular weight molecule (MW 1278) bound to the Fab, sites and chain not stated; 1-2 per Fab by MS; Gln 1 pyroglutamic acid as Fab^5 is defined in paragraph 370) VH: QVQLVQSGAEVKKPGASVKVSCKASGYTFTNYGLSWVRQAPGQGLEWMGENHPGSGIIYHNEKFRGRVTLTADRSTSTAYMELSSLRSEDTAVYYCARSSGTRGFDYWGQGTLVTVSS VL: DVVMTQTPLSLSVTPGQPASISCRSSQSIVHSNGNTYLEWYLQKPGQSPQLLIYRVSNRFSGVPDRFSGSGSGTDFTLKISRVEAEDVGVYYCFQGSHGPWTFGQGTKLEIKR", "unit label": "nM", "quantitative readout": 0.07}
